# System: Sweetpotato Whitefly-Crawler (Bemisia Tabaci)
# experiment_description: Insecticidal test for sweetpotato whitefly-crawler in foliar spray assay (col. BEMITA)
# Assay type: in vivo
# reported_conditions: Bemisia tabaci, sweetpotato whitefly-crawler, read-out: BEMITA 200 ppm (Corrected % Control, rating)
measurement_name: pest or weed control at 200 ppm

{"compound": "Cc1nc(-c2cccnc2)sc1N(C)C(=O)C(C)C[S+](C)[O-] (stereo not drawn) [Compound 87]", "result": "80 to 100%"}
{"compound": "CN(C(=O)OC(C)(C)C)c1sc(-c2cncc(F)c2)nc1Br [Compound 318]", "result": "< 80%"}
{"compound": "CCN(C(=O)OC(C)(C)C)c1cnc(-c2cncc(F)c2)s1 [Compound 245]", "result": "80 to 100%"}
{"compound": "C=CCSCC(C)C(=O)N(C)c1sc(-c2cccnc2)nc1C (stereo not drawn) [Compound 138]", "result": "80 to 100%"}
{"compound": "Cc1nc(-c2cncc(F)c2)sc1NC(=O)CC[S+](C)[O-] (stereo not drawn) [Compound 147]", "result": "< 80%"}
{"compound": "Cc1nc(-c2cccnc2)sc1NC(=O)OCc1ccccc1 [Compound 201]", "result": "< 80%"}
{"compound": "Cc1nc(-c2cccnc2)sc1NC(=O)C1CCN1C(=O)OC(C)(C)C (stereo not drawn) [Compound 337]", "result": "80 to 100%"}
{"compound": "CSCC(C)C(=O)N(COC(=O)c1ccccc1)c1sc(-c2cccnc2)nc1C (stereo not drawn) [Compound 203]", "result": "80 to 100%"}
{"compound": "CCS(=O)(=O)N1CCCC(C(=O)Nc2sc(-c3cccnc3)nc2C)C1 (stereo not drawn) [Compound 388]", "result": "80 to 100%"}
{"compound": "CCCN(C(=O)OC(C)(C)C)c1sc(-c2cccnc2)nc1C [Compound 284]", "result": "80 to 100%"}
{"compound": "CN(CC[S+](C)[O-])C(=O)N(C)c1cnc(-c2cncc(F)c2)s1 (stereo not drawn) [Compound 83]", "result": "80 to 100%"}
{"compound": "Cc1cncc(-c2nc(C)c(NC(=O)OC(C)(C)C)s2)c1 [Compound 150]", "result": "< 80%"}
{"compound": "Cc1nc(-c2cccnc2)sc1N(C)C(=O)C(CCCCNC(=O)OCc1ccccc1)NC(=O)OC(C)(C)C (stereo not drawn) [Compound 291]", "result": "< 80%"}
{"compound": "CSCCC(=O)N(C)c1sc(-c2cncc(F)c2)nc1Cl [Compound 266]", "result": "80 to 100%"}
{"compound": "CSCC(Cc1ccccc1)C(=O)N(C)c1sc(-c2cccnc2)nc1C (stereo not drawn) [Compound 330]", "result": "< 80%"}
{"compound": "Cc1nc(-c2cccnc2)sc1N(C)C(=O)[C@@H]1CCCN1C(=O)OC(C)(C)C [Compound 292]", "result": "80 to 100%"}
{"compound": "CCN(C(=O)C(C)C[S+](C)[O-])c1sc(-c2cncc(F)c2)nc1C (stereo not drawn) [Compound 258]", "result": "80 to 100%"}
{"compound": "CN(C(=O)c1cccnc1)c1cnc(-c2cccnc2)s1 [Compound 26]", "result": "< 80%"}

###

Known pest or weed control at 200 ppm of a selection of compounds
# System: Sweetpotato Whitefly-Crawler (Bemisia Tabaci)
# experiment_description: Insecticidal test for sweetpotato whitefly-crawler in foliar spray assay (col. BEMITA)
# Type: in vivo
# reported_conditions: Bemisia tabaci, sweetpotato whitefly-crawler, read-out: BEMITA 200 ppm (Corrected % Control, rating)

{"compound": "CCOC(=O)c1cncc(-c2nc(C)c(NC(=O)OC(C)(C)C)s2)c1", "pest or weed control at 200 ppm": "< 80%"}
{"compound": "CN(C(=O)NCC[S+](C)[O-])c1cnc(-c2cncc(F)c2)s1 (stereo not drawn)", "pest or weed control at 200 ppm": "< 80%"}
{"compound": "CS[C@H]1CC1C(=O)N(C)c1sc(-c2cncc(F)c2)nc1C (stereo partly drawn)", "pest or weed control at 200 ppm": "80 to 100%"}
{"compound": "CSCCOC(=O)Nc1sc(-c2cccnc2)nc1C", "pest or weed control at 200 ppm": "< 80%"}
{"compound": "CSCCC(=O)Nc1sc(-c2cncc(F)c2)nc1C", "pest or weed control at 200 ppm": "< 80%"}
{"compound": "CSCC(C)C(=O)N(C(=O)C(C)(C)CSC)c1sc(-c2cccnc2)nc1C (stereo not drawn)", "pest or weed control at 200 ppm": "80 to 100%"}
{"compound": "CSCC(C)C(=O)N(C(=O)C(C)C)c1sc(-c2cccnc2)nc1C (stereo not drawn)", "pest or weed control at 200 ppm": "80 to 100%"}
{"compound": "CSCC(C)C(=O)N(C)c1sc(-c2cccnc2)nc1C(F)(F)F (stereo not drawn)", "pest or weed control at 200 ppm": "80 to 100%"}
{"compound": "CCN(C(=O)CCSc1ccccc1)c1sc(-c2cccnc2)nc1C", "pest or weed control at 200 ppm": "< 80%"}

###

# reported pest or weed control at 200 ppm; entries follow
# System: Sweetpotato Whitefly-Crawler (Bemisia Tabaci)
# experiment_description: Insecticidal test for sweetpotato whitefly-crawler in foliar spray assay (col. BEMITA)
# Format: in vivo
# reported_conditions: Bemisia tabaci, sweetpotato whitefly-crawler, read-out: BEMITA 200 ppm (Corrected % Control, rating)
measurement_name: pest or weed control at 200 ppm

{"compound": "CSCC(C)C(=O)N(c1sc(-c2cccnc2)nc1C)C(C)C (centres unmarked)", "result": "< 80%"}
{"compound": "CCN(C(=O)OC(C)(C)C)c1sc(-c2cccnc2)nc1Cl", "result": "80 to 100%"}
{"compound": "COCC(C)(C)OC(=O)N(C)c1sc(-c2cccnc2)nc1C", "result": "80 to 100%"}
{"compound": "CCN(C(=O)CCSC)c1sc(-c2cccnc2)nc1Cl", "result": "80 to 100%"}
{"compound": "CC(C)C(=O)N(C)c1cnc(-c2cncc(F)c2)s1", "result": "80 to 100%"}
{"compound": "Cc1nc(-c2cncc(F)c2)sc1NC(=O)C(C)C", "result": "< 80%"}
{"compound": "CC[C@H](NC(=O)OC(C)(C)C)C(=O)N(C)c1sc(-c2cccnc2)nc1C", "result": "80 to 100%"}
{"compound": "CSC(C)(C)CC(=O)Nc1sc(-c2cncc(F)c2)nc1C", "result": "< 80%"}
{"compound": "CSCC(=O)Nc1sc(-c2cccnc2)nc1C", "result": "80 to 100%"}
{"compound": "Cc1nc(-c2cccnc2)sc1N(C)C(=S)Nc1ccc(Cl)cc1", "result": "80 to 100%"}
{"compound": "CCN(C(=O)CC[S+](C)[O-])c1sc(-c2cccnc2)nc1Cl (centres unmarked)", "result": "80 to 100%"}
{"compound": "Cc1nc(-c2cccnc2)sc1N(C)C(=O)[C@H](CSCc1ccccc1)NC(=O)OC(C)(C)C", "result": "< 80%"}
{"compound": "Cc1nc(-c2cncc(F)c2)sc1NC(=O)OC(C)(C)C", "result": "< 80%"}
{"compound": "Cc1nc(-c2cncc(F)c2)sc1NC(=O)C1CCSC1 (centres unmarked)", "result": "< 80%"}
{"compound": "Cc1nc(-c2cccnc2)sc1N(C)C(=O)C1CCCN(C(=O)C(C)C)C1 (centres unmarked)", "result": "80 to 100%"}
{"compound": "CN(C(=O)C(C)(C)C[S+](C)[O-])c1cnc(-c2cncc(F)c2)s1 (centres unmarked)", "result": "80 to 100%"}
{"compound": "CC(C)C(=O)N(C)c1cnc(-c2ccc(Cl)nc2)s1", "result": "80 to 100%"}
{"compound": "CSC(C)(C)CC(=O)N(C)c1sc(-c2cncc(F)c2)nc1C", "result": "80 to 100%"}
{"compound": "Cc1nc(-c2cccnc2)sc1NC(=O)c1cccc(SC(F)F)c1", "result": "< 80%"}
{"compound": "CC(=O)c1ccc(C(=O)N(C)c2sc(-c3cccnc3)nc2C)s1", "result": "< 80%"}
{"compound": "C=CCSCC(C)C(=O)Nc1sc(-c2cccnc2)nc1C (centres unmarked)", "result": "80 to 100%"}
{"compound": "CSCCC(=O)Nc1sc(-c2cccnc2)nc1C", "result": "80 to 100%"}
{"compound": "Cc1nc(-c2cccnc2)sc1NC(=O)C(C)C", "result": "80 to 100%"}
{"compound": "CSCC(C)C(=O)N(C)c1sc(-c2cccnc2)nc1C (centres unmarked)", "result": "80 to 100%"}
{"compound": "CCOC(=O)c1cncc(-c2nc(C)c(N(C(=O)OC(C)(C)C)C(=O)C(C)CSC)s2)c1 (centres unmarked)", "result": "< 80%"}
{"compound": "CSCC(C)(C)C(=O)Nc1sc(-c2cncc(F)c2)nc1C", "result": "80 to 100%"}
{"compound": "Cc1nc(-c2cncc(Br)c2)sc1N(C)C(=O)OC(C)(C)C", "result": "80 to 100%"}
{"compound": "Cc1nc(-c2cncc(F)c2)sc1N(C)C(=O)C(C)C[S+](C)[O-] (centres unmarked)", "result": "80 to 100%"}
{"compound": "CSCCCC(=O)N(C)c1sc(-c2cccnc2)nc1Cl", "result": "80 to 100%"}
{"compound": "CSCCC(=O)N(C)c1sc(-c2cccnc2)nc1Cl", "result": "80 to 100%"}
{"compound": "CSCC(C)(C)C(=O)N(C)c1sc(-c2cccnc2)nc1C", "result": "80 to 100%"}
{"compound": "CC(C)(C)OC(=O)N(C(=O)OC(C)(C)C)c1cnc(-c2cncc(F)c2)s1", "result": "80 to 100%"}
{"compound": "Cc1nc(-c2cncc(F)c2)sc1NC(=O)C(C)C[S+](C)[O-] (centres unmarked)", "result": "< 80%"}
{"compound": "Cc1nc(-c2cncc(F)c2)sc1N(C)C(=O)C(C)CS(C)(=O)=NC#N (centres unmarked)", "result": "80 to 100%"}
{"compound": "CSCC(C)C(=O)N(C(=O)OC(C)(C)C)c1sc(-c2cccnc2F)nc1C (centres unmarked)", "result": "< 80%"}
{"compound": "Cc1nc(-c2cccnc2)sc1NC(=O)OCC(F)(F)F", "result": "< 80%"}
{"compound": "Cc1nc(-c2cccnc2)sc1N(C(=O)OC(C)(C)C)C(C)C", "result": "80 to 100%"}
{"compound": "CN(C(=O)C(F)(F)F)c1cnc(-c2cccnc2)s1", "result": "< 80%"}
